- System: C. trachomatis L2/434/Bu expressing GFP (CTL2-GFP)
- Construct: L2/434/Bu GFP intracellular growth in HeLa cells
- Experiment Description: microbe, parasite or virus in culture
- Parameters: C. trachomatis total inclusion area by high-content imaging, normalised to DMSO
- Setup Conditions: Chlamydia trachomatis, HeLa, 28.5 h; total inclusion area; read-out: % of control remaining
Experimental Readout: activity at 10 µM

- Molecule: "CCC1C(c2ccc(C)cc2)=CCC(C(=O)NCCCN(C)C)C1C (stereo not drawn)"
  Val: "8.47%"
- Molecule: "CCC(c1ccc(F)cc1)N(C)C(=O)Cn1cc(C(=O)NC2CCCCC2)ccc1=O (stereo not drawn)"
  Val: "2.51%"
- Molecule: "Cc1cc(C)nc(NC(=N)NCCc2c[nH]c3ccccc23)n1"
  Val: "14.7%"
- Molecule: "COCCNc1nc2c(c(N3CCCCCC3)n1)CCNCC2"
  Val: "0.424%"
- Molecule: "Cn1nnnc1-c1cccc(NC(=O)c2ccc(Oc3ccccc3)cc2)c1"
  Val: "30.8%"
- Molecule: "Cc1ccc(C(=O)/C=C\\Nc2ccc(S(=O)(=O)Nc3cc(C)nc(C)n3)cc2)cc1"
  Val: "35.8%"
- Molecule: "COc1ccc(CC(=O)N2CCCC(c3nc(C)c4c(n3)N(CC3CC3)CCC4)C2)cc1 (stereo not drawn)"
  Val: "3.42%"
- Molecule: "O=C1C(NCCO)=C(Nc2cccc(Cl)c2)C(=O)c2ccccc21"
  Val: "14.8%"
- Molecule: "Cc1cc(C(=O)Nc2ccc(S(=O)(=O)Nc3onc(C)c3C)cc2)no1"
  Val: "61.3%"

###

- Experiment Description: in vitro
- Setup Conditions: human, hela cells, % viability
Let's look at some compounds and their measured viability at 28.5 h, 10 µM.

- Compound: "COc1ccc(CNC(=O)c2cn[nH]c2-c2ccccc2)c(OC)c1"
  viability at 28.5 h, 10 µM: "100%"
- Compound: "CCOc1ccc(-c2cncc(N3CCC(C(=O)O)CC3)n2)cc1"
  viability at 28.5 h, 10 µM: "97.2%"
- Compound: "CCc1ccc(/C=N/N2CCN(Cc3cccc4ccccc34)CC2)cc1"
  viability at 28.5 h, 10 µM: "104%"
- Compound: "CN1CCN(C(=O)c2ccc(-c3ccco3)nc2N(C)C)CC1"
  viability at 28.5 h, 10 µM: "94.4%"
- Compound: "O=C(CSc1nnc(CN2CCOCC2)n1-c1ccc(Cl)cc1)N1CCc2ccccc21"
  viability at 28.5 h, 10 µM: "97.9%"
- Compound: "O=C(NCc1cccnc1)c1cc(Br)cnc1NCCOc1ccccc1"
  viability at 28.5 h, 10 µM: "99.2%"
- Compound: "Nc1nnc(-c2ccc(Oc3nc(N4CCOCC4)nc(N4CCOCC4)n3)cc2)s1"
  viability at 28.5 h, 10 µM: "96.1%"
- Compound: "CCOC(=O)N1CCC(NS(=O)(=O)c2cccc3cccnc23)CC1"
  viability at 28.5 h, 10 µM: "90.6%"
- Compound: "CSCC[C@H](NC(=O)Nc1ccc(N2CCC(C)CC2)cc1)C(=O)O"
  viability at 28.5 h, 10 µM: "86%"
- Compound: "COc1ccc(Cl)cc1N1CCN(Cc2ncc[nH]2)CC1"
  viability at 28.5 h, 10 µM: "98.1%"
- Compound: "Cn1cc(CNC(=O)Nc2cccc(CN3CCCCC3=O)c2)cn1"
  viability at 28.5 h, 10 µM: "91.4%"
- Compound: "Cc1ccc(Cl)cc1NC(=O)c1cc(NC(=O)C2CC=CCC2C(=O)O)ccc1N1CCOCC1 (stereo not shown)"
  viability at 28.5 h, 10 µM: "99.1%"
- Compound: "CC(=O)Nc1cccc(-n2nnnc2SCCCc2nc3ccccc3o2)c1"
  viability at 28.5 h, 10 µM: "85.5%"
- Compound: "Cc1cccnc1C(NC(=O)C1CCN(CCCN2C(=O)CC3CCCCC3C2=O)CC1)c1ccc(F)cc1 (stereo not shown)"
  viability at 28.5 h, 10 µM: "91.2%"
- Compound: "CC1CCN(C(=O)c2cccc(Cn3cc(Br)cn3)c2)CC1"
  viability at 28.5 h, 10 µM: "91.8%"
- Compound: "Cn1cnnc1C1CCCN(C(=O)NCc2cccc(F)c2)C1 (stereo not shown)"
  viability at 28.5 h, 10 µM: "101%"
- Compound: "CNC(=O)c1ccc(-c2cccc(Cl)c2Cl)nc1N1CCOCC1"
  viability at 28.5 h, 10 µM: "109%"
- Compound: "CC1CN(S(=O)(=O)C(C)C)CCC1NCc1ccncc1 (stereo not shown)"
  viability at 28.5 h, 10 µM: "89.6%"
- Compound: "O=C1CCC(=O)N1CCOc1nccnc1OC1CCN(CCOc2ccccc2)CC1"
  viability at 28.5 h, 10 µM: "101%"
